- measurement-description: purified protein yield per well (BCA); higher = higher soluble expression
experimental-readout: purified protein yield per well

Known results for sequences:
• FTASQSSIQWYGPLLAGEGFVVITIDTNTIFDQPDSRATQLLAALDYLTGSSDVRHIVDPNRLAVAGWSMGGGGSLEAAVRRPSLKAAIPLAGWHTTKTFNTAVPTLVVACENDAVAGNAQHSGPFYDGLPASTPKAYLEIAGGDHTCVGSYDINIATPVVAWAKRWVNGDTSASAQLCPPKPIGGPISDSKANCPY [ESM171] = < 25 µg
• SPPIVRYDYAPGKYSGNGPYSYSTYQLPGWSPGATVYYPTNASPPFSGIVFCPPYTGTQSNFAAWGPFFASHGIVLVTMDTSSTLISVDQRAIEQRMVLDLLKAERNRPGSPLYNKIDPERVGAMGWSMGGGASWINSAEYPGLKTAMSLAGHHLTAINPNAKGYGTQCPTIIFCGLLDQTILGGMLQSETVYYNIPSGIPKVFYEVSTAGHFVWYSPTAANSHVAELALAFQKTFLDGDTRWEQYIEEPLFD [TEP034] = < 25 µg
• DSPYERGPDPTTSSIEASSGPFDVDEDSVSSWSVSGFGGGTVYYPEDDGQTYGGVVIAPGYTESSSAMAWLGEYLASHGFVAFNIDTNTRYDQPDSRGRQIEAALDYLAEDSDVSDLVDPNRLAAMGHSMGGGGTLAAAEDRPELKAAIPLTPWHTDKTWGGVTVPTMIIGAENDTIAPNSSHSIPFYNSLSTSTERAYVELDGEGHLVTSSRNTELASNSVSWLKVFVDEDDRYEQFLCPAPSTGWGSPYSDYRDSCPYI [DP033] = 31 µg
• ANPYERGPAPTLSSIQATTGPFATATTTVPSGNGFGGGTIYYPTDTSQGTFAAIAMSPGFFNTQSAISWYGKRIASQGFVFLTINTNTILDFPDSRATQLLAALDYLTQSSPVSSLIDSSRLGVMGYSMGGGGTLKASKTRPSLEAAVGVAPWHSTKNWSTNTVPSMMLGMQNDTVAPASSHAIPFYNSLPASIHKVYAEVRGASHSTPTSANTPIAQYSIAFLKQELDNDTRYTQFLCPAPAVGGTNPLSAYSSTCPF [DP067] = < 25 µg
• HAPVHQPAVAHHHAPFAVRTTAVPKTAVTTFGGGVIYTPQDTGKAVLGAVVITPGFTDTNADEKEMAELVASQGFVAFAIDTLDTSDLPAQRSTEILAAADYLTGQSAVKSQVSAKDVGLIGYSFGGGGTMEAAQARPSIKAAIGLMPFDFPDANDPNAQYATYPKLTTPTLVITGEKDDVATPKDYGKPAYDSIPAGTPKQYLELKGLGHGAGEHVPVPTIRNAVTAFLKRYLDGNSAYAKFICPAPKVGGPISVSLSSCPKG [TEP026] = < 25 µg

Consider the sequence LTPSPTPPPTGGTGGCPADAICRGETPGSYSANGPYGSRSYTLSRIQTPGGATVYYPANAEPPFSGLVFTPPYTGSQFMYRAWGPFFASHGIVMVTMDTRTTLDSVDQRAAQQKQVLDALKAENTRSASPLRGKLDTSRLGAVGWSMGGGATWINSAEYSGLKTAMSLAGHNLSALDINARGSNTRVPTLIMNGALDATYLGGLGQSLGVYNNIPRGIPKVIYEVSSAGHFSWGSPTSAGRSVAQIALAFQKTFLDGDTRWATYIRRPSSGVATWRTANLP [ESM175] and give its recorded purified protein yield per well. 285 µg

Attribution: the supplement of paper PMC12455559
